Could you please report measured K for the items listed next?
Organism: Rattus norvegicus
Test Description: Open TG-GATES - Regimen: Single
Type: toxicity, organism-based, Sprague-Dawley
Parameters: regimen Single, gender Male, age 6 weeks
Protocol Conditions: in vivo, po, 0 mg/kg, 3 h, tissue Plasma, route gavage, dose level Control

Check out these entries, answers already filled in.
| Compound | K |
| --- | --- |
| S=C=Nc1cccc2ccccc12 [1-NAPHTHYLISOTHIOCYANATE] | 3.9 meq/L |
| COc1ccc(Cl)cc1C(=O)NCCc1ccc(S(=O)(=O)NC(=O)NC2CCCCC2)cc1 [GLYBURIDE] | 3.8 meq/L |
| O=C1NC(=O)C(c2ccccc2)(c2ccccc2)N1 | 4.1 meq/L |
| CNCCC(Oc1ccc(C(F)(F)F)cc1)c1ccccc1.Cl (stereo unspecified) [FLUOXETINE HYDROCHLORIDE] | 4.9 meq/L |

State recorded K for all listed compounds.
1. C=CCO
2. CS(=O)(=O)Nc1ccc([N+](=O)[O-])cc1Oc1ccccc1 [NIMESULIDE]
3. Cn1cnc([N+](=O)[O-])c1Sc1ncnc2nc[nH]c12
4. Cc1cnc(NC(=O)C2=C(O)c3ccccc3S(=O)(=O)N2C)s1
5. Cc1cccc(Nc2cc(Cl)nc(SCC(=O)O)n2)c1C
6. COc1ccc(O)c(C(C)(C)C)c1.COc1ccc(O)cc1C(C)(C)C [BUTYLATED HYDROXYANISOLE]
7. O=C1CN(/N=C/c2ccc(-c3ccc([N+](=O)[O-])cc3)o2)C(O)=N1

Data returned:
["3.9 meq/L", "4.8 meq/L", "3.9 meq/L", "3.7 meq/L", "3.8 meq/L", "4.4 meq/L", "4.7 meq/L"]
